- method_summary: Acute toxicity (M) LD 50
- test_settings: in vivo; mouse, IV
readout_name: LD50 (mg/kg)
Report as a plain number; the unit mg/kg is understood.

Inquiry: # query: LD50 of entry O=C([O-])C1N=C(c2ccccc2)c2cc(Cl)ccc2NC1=O.[K+] (stereo not shown)
Reply text: 220

###

- Test system: mice
- method_summary: Anti-convulsant activity (electric shock) (mice)
- Type: in vivo
- test_settings: Mus musculus, po, read-out: Electric shock, 50% effective dose
readout_name: ED50 (mg/kg)
Report as a plain number; the unit mg/kg is understood.

{"molecule": "CN1C(=O)C(C(=O)O)N=C(c2ccccc2)c2cc(Cl)ccc21.[K+].[K+].[OH-].[OH-] (centres unmarked)", "ED50 [mg/kg]": 20}

We now examine a further molecule.
Inquiry: # query: ED50 of entry CNC1=Nc2ccc(Cl)cc2C(c2ccccc2)=[N+]([O-])C1 [Chlordiazepoxide, reference compound]
Reply text: 17

###

- System: male rat
- method_summary: Combativeness (rat)
- Type: in vivo
- test_settings: rat, PO; read-out: Combativeness, 50% effective dose
Structures can show the parent of a compound that is named as a salt.
readout_name: ED50 (mg/kg)
Report as a plain number; the unit mg/kg is understood.

Solved cases (3 shown):
{"compound": "O=C1CN=C(c2ccccc2)c2cc(Cl)ccc2N1 [Nor-diazepame, reference compound]", "test_result": 100}
{"compound": "CNC1=Nc2ccc(Cl)cc2C(c2ccccc2)=[N+]([O-])C1 [Chlordiazepoxide, reference compound]", "test_result": 100}
{"compound": "O=C(O)C1N=C(c2ccccc2)c2cc([N+](=O)[O-])ccc2NC1=O.[K+].[K+].[OH-].[OH-] (stereo not shown)", "test_result": 10}

Inquiry: # query: ED50 of entry O=C(O)C1N=C(c2ccccc2)c2cc([N+](=O)[O-])ccc2NC1=O (stereo not shown) [4336 CB, potassium salt]
Reply text: 10

Inquiry: # query: ED50 of entry O=C([O-])C1N=C(c2ccccc2)c2cc(Cl)ccc2NC1=O.[K+] (stereo not shown)
Reply text: 25

Inquiry: # query: ED50 of entry CN1C(=O)CN=C(c2ccccc2)c2cc(Cl)ccc21 [Diazepame, reference compound]
Reply text: 25

###

- Tested on: mice
- method_summary: Anti-convulsant activity (anti-pentetrazole) (mice)
- Format: in vivo
- test_settings: mouse, PO; pentetrazole 125 mg./kg. IP; read-out: Anti-pentetrazole, 50% effective dose
Counter-ions that a name gives are not always drawn.
Entries annotated with measured ED50

{"compound": "O=C(O)C1N=C(c2ccccc2)c2ccccc2NC1=O (stereo not drawn) [4338 CB, potassium salt]", "ED50": "> 10 mg/kg"}
{"compound": "O=C(O)C1N=C(c2ccccc2)c2ccccc2NC1=O.[K+].[K+].[OH-].[OH-] (stereo not drawn)", "ED50": "> 10 mg/kg"}

We now examine a further compound.
Inquiry: Hello, I am looking for reported ED50 with mice for Cc1ccc2c(c1)C(c1ccccc1)=NC(C(=O)O)C(=O)N2.[K+].[K+].[OH-].[OH-] (stereo not drawn) . Could you help?
Reply text: > 10 mg/kg

###

- Test system: mice
- method_summary: Anti-convulsant activity (electric shock) (mice)
- Assay type: in vivo
- test_settings: Mus musculus, po, read-out: Electric shock, 50% effective dose
Counter-ions that a name gives are not always drawn.
Entries annotated with measured ED50

Solved cases (2 shown):
{"compound": "O=C(O)C1N=C(c2ccccc2)c2ccccc2NC1=O.[K+].[K+].[OH-].[OH-] (stereo not drawn) [4337 CB]", "target_under_test": "mice", "ED50": "> 10 mg/kg"}
{"compound": "O=C(O)C1N=C(c2ccccc2)c2ccccc2NC1=O (stereo not drawn) [4338 CB, potassium salt]", "target_under_test": "mice", "ED50": "> 10 mg/kg"}

We now examine a further compound.
Inquiry: # query: ED50 of entry NC(=O)C(N=C(c1ccccc1)c1cc(Cl)ccc1N)C(=O)O (stereo not drawn) [4349 CB]
Reply text: > 10 mg/kg

These data points were gathered from patent US3966793A.
